Origin of the recorded values: patent US20250388664A1

Target: T1, truncated hTfR1 of SEQ ID NO:122 (human, UniProt P02786 122-760)
T1 construct: also called human TfR1; Human TfR1
T1 sequence (P02786 other isoform, or with tags, fused parts or gaps limits assumed): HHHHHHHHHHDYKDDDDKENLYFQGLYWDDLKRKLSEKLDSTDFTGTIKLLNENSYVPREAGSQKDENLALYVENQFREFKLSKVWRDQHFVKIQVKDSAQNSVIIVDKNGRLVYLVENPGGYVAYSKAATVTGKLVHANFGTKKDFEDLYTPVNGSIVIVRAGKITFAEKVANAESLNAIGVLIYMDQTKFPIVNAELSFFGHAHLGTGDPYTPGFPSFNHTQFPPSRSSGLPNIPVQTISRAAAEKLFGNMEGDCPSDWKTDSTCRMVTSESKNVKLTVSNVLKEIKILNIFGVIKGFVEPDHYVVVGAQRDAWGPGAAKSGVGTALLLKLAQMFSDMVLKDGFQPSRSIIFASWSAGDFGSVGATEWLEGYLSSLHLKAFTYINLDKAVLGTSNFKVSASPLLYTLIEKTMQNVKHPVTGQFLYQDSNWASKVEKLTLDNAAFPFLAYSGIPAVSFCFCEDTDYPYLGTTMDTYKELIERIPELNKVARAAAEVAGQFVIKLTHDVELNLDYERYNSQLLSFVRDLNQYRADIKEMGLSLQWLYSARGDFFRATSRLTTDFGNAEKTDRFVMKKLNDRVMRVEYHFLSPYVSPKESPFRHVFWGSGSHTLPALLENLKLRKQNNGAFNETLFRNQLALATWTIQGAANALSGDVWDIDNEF
Experiment: SPR, FLAG-captured TfR1, scFv injected, 1:1 fit
Each entry below carries its reported kon.
Give the number; M⁻¹ s⁻¹ is assumed, so skip it.

- h26D3 HC6 DS T120K (scFv, also called h26D3 DS T120K) scFv: HHHHHHGGGGSGGGGSGGGGSGGGGSDIQMTQSPSSVSASVGDRVTITCKSSQSLLYSTNQKNYLAWYQQKPGKAPKLLIYWASTRESGVPSRFSGSGSGTDFTLTISSLQPEDFATYYCQQYFIYPRTFGCGTKVEIKGGGGSGGGGSGGGGSGGGGSEVQLVQSGAEVKKPGSSVKVSCKASGYIFTDYNMDWVRQAPGQCLEWIGDINPDADTTSYNEKFKGRATLTVDKSTSTAYMELSSLRSEDTAVYYCARGGYSGSSYYHPMDYWGQGTLVKVSS: 75100

Now consider a different binder.
Enquiry: Consider the binder shown here: h26D3 HC6 DS V11R T91A (scFv, also called h26D3 DS V11R T91A) scFv: HHHHHHGGGGSGGGGSGGGGSGGGGSDIQMTQSPSSVSASVGDRVTITCKSSQSLLYSTNQKNYLAWYQQKPGKAPKLLIYWASTRESGVPSRFSGSGSGTDFTLTISSLQPEDFATYYCQQYFIYPRTFGCGTKVEIKGGGGSGGGGSGGGGSGGGGSEVQLVQSGAERKKPGSSVKVSCKASGYIFTDYNMDWVRQAPGQCLEWIGDINPDADTTSYNEKFKGRATLTVDKSTSTAYMELSSLRSEDAAVYYCARGGYSGSSYYHPMDYWGQGTLVTVSS What is its recorded kon?
Return: 76100
